B1: SMG5 (parent)
chain: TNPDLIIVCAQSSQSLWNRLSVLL

# Variants of: B1
# test-description: protein stability index of a GFP-peptide fusion (GPS, HEK-293T) (PSI 1-6); higher = more stable;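 note: lentivirally expressed fusions sorted by FACS into six bins by GFP to DsRed ratio, PSI derived from sequencing read proportions per bin multiplied by bin number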
# experimental-setup: c terminus: a fixed tail appended
property: protein stability index
API note: the answer field is a bare number with no unit suffix.

variant-code: I6R
protein stability index: 2.2

variant-code: I6G
protein stability index: 2.65

variant-code: T1V
protein stability index: 2.84

variant-code: C9T
protein stability index: 1.95

variant-code: V22Q
protein stability index: 1.65

variant-code: V8T
protein stability index: 1.72

variant-code: Q14N
protein stability index: 2.81

variant-code: C9A
protein stability index: 2.28

variant-code: C9Q
protein stability index: 2.09

variant-code: S21Y
protein stability index: 3.25

Qu. What does the record list as protein stability index for S21N ?
Ans. 3.04

Qu. // next record C9I
Ans. 2.72

Qu. // next record A10G
Ans. 1.98

Qu. // next record I6K
Ans. 2.36
